System: HDF
assay_comment: Photocytotoxicity, MTT assay
Assay type: cell-based, human
assay_setup: Homo sapiens, HDF, light or radiation study; 6 h incubation, red light 643 nm 30 min, 3.6 J/cm^2, normoxia; read-out: IC50 HDF No CoCl2
pIC50: −log10 of the molar value.

>  <structure_smiles_string>
CC(=O)Nc1ccc(-c2c3nc(c(-c4ccc[n+]([O-])c4)c4ccc([nH]4)c(-c4ccc[n+]([O-])c4)c4nc(c(-c5ccc[n+]([O-])c5)c5ccc2[nH]5)C=C4)C=C3)cc1

>  <comparison_symbol>
<

>  <pIC50>
4.00

$$$$
>  <structure_smiles_string>
CCCCCCCCCCCCCCCCCC(=O)Nc1ccc(-c2c3nc(c(-c4ccc[n+]([O-])c4)c4ccc([nH]4)c(-c4ccc[n+]([O-])c4)c4nc(c(-c5ccc[n+]([O-])c5)c5ccc2[nH]5)C=C4)C=C3)cc1

>  <comparison_symbol>
=

>  <pIC50>
5.88

$$$$
>  <structure_smiles_string>
CCCCCCCCCCCCCC(=O)Nc1ccc(-c2c3nc(c(-c4ccc[n+]([O-])c4)c4ccc([nH]4)c(-c4ccc[n+]([O-])c4)c4nc(c(-c5ccc[n+]([O-])c5)c5ccc2[nH]5)C=C4)C=C3)cc1

>  <comparison_symbol>
=

>  <pIC50>
6.07

$$$$
>  <structure_smiles_string>
CCCCCCCCCC(=O)Nc1ccc(-c2c3nc(c(-c4ccc[n+]([O-])c4)c4ccc([nH]4)c(-c4ccc[n+]([O-])c4)c4nc(c(-c5ccc[n+]([O-])c5)c5ccc2[nH]5)C=C4)C=C3)cc1

>  <comparison_symbol>
=

>  <pIC50>
5.46

$$$$

Where these numbers come from: paper PMC12382614
